system: T1, human CLDN6 fused to GFP, expressed on engineered HEK293T cells (HEK293T-CLDN6-mGFP) (human, UniProt P56747 1-220)
T1 construct: It calls residues 1-21 a signal peptide; also called Claudin-6; HEK293T-CLDN6-mGFP Artificial CLDN6+; not shown: mGFP tag
T1 sequence: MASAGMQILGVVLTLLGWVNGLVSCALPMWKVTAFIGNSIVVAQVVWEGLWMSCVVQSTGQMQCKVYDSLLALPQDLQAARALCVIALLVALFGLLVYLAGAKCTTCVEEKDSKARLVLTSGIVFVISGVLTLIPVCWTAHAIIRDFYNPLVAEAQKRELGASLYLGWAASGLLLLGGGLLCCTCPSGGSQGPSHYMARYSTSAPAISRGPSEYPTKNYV
experimental.details: FACS, 1.5 µg Ab, 293T clone with human CLDN6
Can you tell me FACS fluorescence for the items I'm about to list?
One number for each entry.

Consider the following illustrative entries.
AB1-3 (antibody, V domains shown, also called Humanized AB 1-3) VH: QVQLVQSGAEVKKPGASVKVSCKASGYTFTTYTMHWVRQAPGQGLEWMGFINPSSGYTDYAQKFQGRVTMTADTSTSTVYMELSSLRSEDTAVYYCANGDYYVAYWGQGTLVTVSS VL: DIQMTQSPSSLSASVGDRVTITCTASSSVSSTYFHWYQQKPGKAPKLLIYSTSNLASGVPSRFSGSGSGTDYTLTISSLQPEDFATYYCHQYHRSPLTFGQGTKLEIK
142000
AB18-4 (antibody, V domains shown, also called Humanized AB 18-4) VH: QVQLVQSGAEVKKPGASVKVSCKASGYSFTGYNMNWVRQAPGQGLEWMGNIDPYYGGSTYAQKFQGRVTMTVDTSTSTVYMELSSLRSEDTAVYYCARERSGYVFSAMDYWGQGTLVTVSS VL: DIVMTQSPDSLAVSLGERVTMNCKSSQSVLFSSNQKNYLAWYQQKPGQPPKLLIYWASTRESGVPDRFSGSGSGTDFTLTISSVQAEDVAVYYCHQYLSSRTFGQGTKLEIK
54400
AB4-6 (antibody, V domains shown, also called Humanized AB 4-6) VH: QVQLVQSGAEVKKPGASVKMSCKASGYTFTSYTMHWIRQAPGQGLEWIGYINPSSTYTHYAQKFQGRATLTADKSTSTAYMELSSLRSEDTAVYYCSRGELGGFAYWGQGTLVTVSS VL: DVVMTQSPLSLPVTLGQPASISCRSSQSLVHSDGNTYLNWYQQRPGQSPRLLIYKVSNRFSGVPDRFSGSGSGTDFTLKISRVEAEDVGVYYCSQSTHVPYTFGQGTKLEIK
29200
AB3-5 (antibody, V domains shown, also called Humanized AB 3-5) VH: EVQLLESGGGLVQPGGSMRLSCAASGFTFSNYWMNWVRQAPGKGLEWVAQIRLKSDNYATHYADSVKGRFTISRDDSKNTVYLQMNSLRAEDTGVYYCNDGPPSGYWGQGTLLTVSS VL: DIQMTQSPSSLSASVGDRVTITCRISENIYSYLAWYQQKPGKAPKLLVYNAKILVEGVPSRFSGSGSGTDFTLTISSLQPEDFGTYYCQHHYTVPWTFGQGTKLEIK
48600
AB3-3 (antibody, V domains shown, also called Humanized AB 3-3) VH: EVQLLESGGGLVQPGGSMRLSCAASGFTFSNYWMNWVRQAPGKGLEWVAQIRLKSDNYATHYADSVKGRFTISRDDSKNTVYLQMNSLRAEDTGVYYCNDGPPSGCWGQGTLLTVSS VL: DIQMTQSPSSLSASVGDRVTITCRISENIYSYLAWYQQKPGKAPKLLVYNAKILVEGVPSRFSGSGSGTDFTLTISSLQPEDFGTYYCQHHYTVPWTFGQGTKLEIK
340000

Field: FACS fluorescence. Fill in for each record below.
1. AB4-12 (antibody, V domains shown, Humanized; also called Humanized AB 4-12) VH: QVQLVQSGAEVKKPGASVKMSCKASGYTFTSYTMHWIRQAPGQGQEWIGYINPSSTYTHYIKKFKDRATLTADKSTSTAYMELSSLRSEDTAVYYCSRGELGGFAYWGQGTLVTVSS VL: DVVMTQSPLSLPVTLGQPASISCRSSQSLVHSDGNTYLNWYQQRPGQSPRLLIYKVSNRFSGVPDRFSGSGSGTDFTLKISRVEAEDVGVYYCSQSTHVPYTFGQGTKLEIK
2. AB3-2 (antibody, V domains shown, also called Humanized AB 3-2) VH: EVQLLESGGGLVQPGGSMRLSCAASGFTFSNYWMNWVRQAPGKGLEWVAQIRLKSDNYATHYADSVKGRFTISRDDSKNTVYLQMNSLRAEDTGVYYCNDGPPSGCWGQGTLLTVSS VL: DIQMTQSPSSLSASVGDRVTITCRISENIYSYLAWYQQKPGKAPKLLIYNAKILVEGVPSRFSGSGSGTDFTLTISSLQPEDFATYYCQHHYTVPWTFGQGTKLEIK

1. 86200
2. 396000

Field: FACS fluorescence. Fill in for each record below.
1. AB4-10 (antibody, V domains shown, Humanized; also called Humanized AB 4-10) VH: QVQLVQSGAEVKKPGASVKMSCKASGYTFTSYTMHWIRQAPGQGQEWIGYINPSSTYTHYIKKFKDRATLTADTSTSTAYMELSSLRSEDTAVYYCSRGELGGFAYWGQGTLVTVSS VL: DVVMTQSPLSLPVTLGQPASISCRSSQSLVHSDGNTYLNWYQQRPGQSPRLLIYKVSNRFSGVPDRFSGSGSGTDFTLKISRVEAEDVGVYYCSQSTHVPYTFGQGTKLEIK
2. AB4-chim (antibody, V domains shown, 'chim' is the pre-humanized form (parental variable regions); also called pre-humanized (chimeric) form of AB4) VH: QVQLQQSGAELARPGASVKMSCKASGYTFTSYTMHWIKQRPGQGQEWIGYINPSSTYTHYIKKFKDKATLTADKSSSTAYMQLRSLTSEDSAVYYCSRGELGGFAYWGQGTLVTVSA VL: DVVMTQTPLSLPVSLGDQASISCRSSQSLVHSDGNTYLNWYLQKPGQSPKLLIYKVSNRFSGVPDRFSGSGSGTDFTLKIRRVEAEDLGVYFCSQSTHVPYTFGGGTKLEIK
3. AB4-5 (antibody, V domains shown, also called Humanized AB 4-5) VH: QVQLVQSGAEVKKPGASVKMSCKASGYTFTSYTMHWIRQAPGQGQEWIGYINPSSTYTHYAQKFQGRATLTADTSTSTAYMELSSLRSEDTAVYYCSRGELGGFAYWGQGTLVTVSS VL: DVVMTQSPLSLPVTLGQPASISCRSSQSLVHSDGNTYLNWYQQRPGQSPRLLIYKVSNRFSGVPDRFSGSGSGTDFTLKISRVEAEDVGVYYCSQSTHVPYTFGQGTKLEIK

1: 77200; 2: 327000; 3: 43400
